Biological target: LRRK2 (Homo sapiens, UniProt Q5S007)
Sequence (Q5S007 whole entry, the tested form may be a part): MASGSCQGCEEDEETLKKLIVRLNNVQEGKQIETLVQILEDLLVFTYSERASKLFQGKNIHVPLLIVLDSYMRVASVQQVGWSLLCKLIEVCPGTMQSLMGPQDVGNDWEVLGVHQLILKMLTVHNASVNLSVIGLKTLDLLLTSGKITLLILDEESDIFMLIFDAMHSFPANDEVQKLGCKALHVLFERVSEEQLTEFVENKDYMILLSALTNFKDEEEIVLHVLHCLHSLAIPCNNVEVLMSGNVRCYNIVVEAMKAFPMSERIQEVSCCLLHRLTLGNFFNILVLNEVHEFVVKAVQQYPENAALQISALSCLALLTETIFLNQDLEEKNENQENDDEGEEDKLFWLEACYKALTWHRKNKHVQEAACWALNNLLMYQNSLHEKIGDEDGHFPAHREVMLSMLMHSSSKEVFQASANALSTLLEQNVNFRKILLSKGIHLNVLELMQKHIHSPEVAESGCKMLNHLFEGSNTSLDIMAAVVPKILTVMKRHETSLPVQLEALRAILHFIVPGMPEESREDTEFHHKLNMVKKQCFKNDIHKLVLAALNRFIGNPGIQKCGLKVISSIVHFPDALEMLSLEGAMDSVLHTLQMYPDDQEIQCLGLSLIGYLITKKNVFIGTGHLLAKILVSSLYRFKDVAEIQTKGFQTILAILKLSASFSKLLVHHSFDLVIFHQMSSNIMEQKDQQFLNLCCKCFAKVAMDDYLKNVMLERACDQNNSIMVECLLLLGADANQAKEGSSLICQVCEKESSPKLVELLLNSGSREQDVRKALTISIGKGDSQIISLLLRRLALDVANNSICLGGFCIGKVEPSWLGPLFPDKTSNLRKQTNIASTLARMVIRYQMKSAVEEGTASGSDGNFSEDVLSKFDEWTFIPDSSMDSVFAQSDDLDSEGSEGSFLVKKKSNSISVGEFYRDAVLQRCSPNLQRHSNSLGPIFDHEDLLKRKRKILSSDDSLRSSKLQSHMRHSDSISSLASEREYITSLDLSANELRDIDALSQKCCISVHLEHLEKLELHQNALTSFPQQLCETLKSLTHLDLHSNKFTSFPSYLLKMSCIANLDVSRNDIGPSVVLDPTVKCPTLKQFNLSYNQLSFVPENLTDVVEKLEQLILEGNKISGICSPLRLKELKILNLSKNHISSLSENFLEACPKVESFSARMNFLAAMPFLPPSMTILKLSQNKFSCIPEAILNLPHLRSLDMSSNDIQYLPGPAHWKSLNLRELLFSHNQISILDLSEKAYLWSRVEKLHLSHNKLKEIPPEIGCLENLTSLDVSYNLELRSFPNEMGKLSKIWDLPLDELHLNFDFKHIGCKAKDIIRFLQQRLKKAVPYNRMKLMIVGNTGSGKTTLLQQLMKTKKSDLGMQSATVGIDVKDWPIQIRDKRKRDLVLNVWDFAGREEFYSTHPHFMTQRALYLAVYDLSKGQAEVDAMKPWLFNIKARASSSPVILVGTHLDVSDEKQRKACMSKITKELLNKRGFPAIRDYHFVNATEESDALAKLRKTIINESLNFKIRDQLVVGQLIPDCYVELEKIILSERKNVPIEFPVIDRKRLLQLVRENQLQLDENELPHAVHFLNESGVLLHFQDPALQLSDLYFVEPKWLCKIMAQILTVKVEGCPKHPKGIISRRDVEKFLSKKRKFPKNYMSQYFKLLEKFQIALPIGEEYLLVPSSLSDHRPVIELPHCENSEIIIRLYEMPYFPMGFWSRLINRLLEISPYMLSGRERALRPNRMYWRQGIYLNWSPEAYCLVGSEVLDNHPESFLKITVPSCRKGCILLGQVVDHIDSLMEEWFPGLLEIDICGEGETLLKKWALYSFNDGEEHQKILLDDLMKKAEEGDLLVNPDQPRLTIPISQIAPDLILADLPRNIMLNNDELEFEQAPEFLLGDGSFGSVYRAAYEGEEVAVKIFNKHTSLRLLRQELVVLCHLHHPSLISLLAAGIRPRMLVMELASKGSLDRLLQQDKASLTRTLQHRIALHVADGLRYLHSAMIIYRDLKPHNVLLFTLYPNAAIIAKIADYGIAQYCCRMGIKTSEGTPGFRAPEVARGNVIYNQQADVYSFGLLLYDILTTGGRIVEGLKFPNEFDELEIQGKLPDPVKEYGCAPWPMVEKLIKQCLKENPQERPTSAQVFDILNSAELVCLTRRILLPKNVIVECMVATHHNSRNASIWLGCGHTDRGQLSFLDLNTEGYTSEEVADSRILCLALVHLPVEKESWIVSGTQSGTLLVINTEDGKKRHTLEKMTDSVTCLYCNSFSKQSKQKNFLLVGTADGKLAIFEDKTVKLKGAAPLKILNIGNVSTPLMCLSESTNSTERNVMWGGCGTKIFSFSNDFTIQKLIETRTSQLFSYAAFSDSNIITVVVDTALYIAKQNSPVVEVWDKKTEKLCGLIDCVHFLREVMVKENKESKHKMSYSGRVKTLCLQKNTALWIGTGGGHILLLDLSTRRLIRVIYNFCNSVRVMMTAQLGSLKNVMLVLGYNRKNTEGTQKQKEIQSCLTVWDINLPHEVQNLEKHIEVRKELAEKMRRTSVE
Experiment: Inhibition of recombinant human GST-tagged LRRK2 (970 to 2527 residues) expressed in baculovirus expression system using LRRKtide as substrate at 0.1 uM incubated for 60 mins by Adapta assay relative to control
Conditions: probe LRRKtide
Property: inhibition at 1 h, 0.1 µM; scope: individual molecules
Numbers only here, please. The scale is %.

Examples from the recorded data:
Bench note, LRRK2 (Homo sapiens, UniProt Q5S007): Cn1cc(NC(=O)c2cnn3cccnc23)c(-c2cc(Cl)ccc2OC(F)F)n1 , inhibition at 1 h, 0.1 µM reads 61

Value sought: inhibition at 1 h, 0.1 µM, system LRRK2 (Homo sapiens, UniProt Q5S007), item O=C(Nc1c[nH]nc1-c1cc(Br)ccc1OC(F)F)c1cnn2cccnc12 . Result: 86

***
Measured on LRRK2 (Homo sapiens, UniProt Q5S007), O=C(Nc1c[nH]nc1-c1cc(I)ccc1OC(F)F)c1cnn2cccnc12 has a documented inhibition at 1 h, 0.1 µM of 91

Let me check: O=C(Nc1c[nH]nc1-c1cc(Cl)ccc1OC(F)F)c1cnn2cccnc12 , system LRRK2 (Homo sapiens, UniProt Q5S007), measured inhibition at 1 h, 0.1 µM is 87

The molecule O=C(Nc1c[nH]nc1-c1cc(Cl)ccc1OC(F)F)c1cncc2c[nH]nc12 , tested on LRRK2 (Homo sapiens, UniProt Q5S007), showed inhibition at 1 h, 0.1 µM of 52

The reported LRRK2 (Homo sapiens, UniProt Q5S007) inhibition at 1 h, 0.1 µM of Nc1nn2cccnc2c1C(=O)Nc1c[nH]nc1-c1cc(Cl)ccc1OC(F)F is 99

Measured inhibition at 1 h, 0.1 µM for this entry O=C(Nc1c[nH]nc1-c1cc2ccccc2cc1OC(F)F)c1cnn2cccnc12 on LRRK2 (Homo sapiens, UniProt Q5S007): 31

LRRK2 (Homo sapiens, UniProt Q5S007) data for O=C(Nc1c[nH]nc1-c1cc2cn[nH]c2cc1OC(F)F)c1cnn2cccnc12 ; its inhibition at 1 h, 0.1 µM: 89
